IC50 reference
Tested on: Aβtotal
Experiment: Screening for γ-secretase-modulating activity, Method 2: Aβtotal Alphalisa in supernatant of SKNBE2 cells carrying APP 695 wild type (Table 12c)
Format: cell-based
Settings: Homo sapiens, Method 2, Table 12c, incubated overnight
Description: Screening was carried out using SKNBE2 cells carrying the APP 695—wild type, grown in Dulbecco's Modified Eagle's Medium/Nutrient mixture F-12 (DMEM/NUT-mix F-12) (HAM) provided by Invitrogen (cat no. 10371-029) containing 5% Serum/Fe supplemented with 1% non-essential amino acids, 1-glutamine 2 mM, Hepes 15 mM, penicillin 50 U/ml (units/ml) en streptomycin 50 μg/ml. […] Aβtotal and Aβ42 concentrations were quantified in the cell supernatant using the Aphalisa technology (Perkin Elmer). […]
Return type: number; implicit unit µM.

CCC(=O)NCc1ccc(C)c(-c2cn3cccc(Nc4ccc(-n5cnc(C)c5)c(OC)c4)c3n2)c1: 5.5

# lookup: IC50 of C=C(C)c1cc(Nc2ccc(-n3cnc(C)c3)c(OC)n2)c2nc(-c3ccccc3Cl)cn2n1
8.32

# lookup: IC50 of COc1cc(Nc2cccn3c(C)c(-c4ccccc4Cl)nc23)ccc1-n1cnc(C)c1
5.5

# lookup: IC50 of COc1cc(Nc2cccn3c(C)c(-c4ccccc4Cl)nc23)ccc1-n1cnc(C)n1
9.12
